The reported numbers originate from ChEMBL document CHEMBL1139278.

Test system: Staphylococcus aureus
Experiment: Antimicrobial activity against methicillin-susceptible Staphylococcus aureus Smith by NCCLS method
Assay type: functional
For each entry below, report its MIC value.
Give bare numbers, in µg/mL.

Example molecules with recorded MIC:
molecule | MIC (µg/mL)
C=C[C@]1(C)C[C@@H](OC(=O)CN2CC(C)N(C(=O)CCn3cnc4c(N5CCC(N)C5)ncnc43)C(C)C2)[C@]2(C)[C@H](C)CC[C@]3(CCC(=O)[C@@H]32)[C@@H](C)[C@@H]1O.Cl.Cl (stereo partly drawn) | 0.125
C=C[C@]1(C)C[C@@H](OC(=O)CN2CCN(C(=O)CCn3cnc4c(N5CCC(CNC)C5)ncnc43)CC2)[C@]2(C)[C@H](C)CC[C@]3(CCC(=O)[C@@H]32)[C@@H](C)[C@@H]1O.Cl.Cl (stereo partly drawn) | 0.25
C=C[C@]1(C)C[C@@H](OC(=O)CN2CCN(C(=O)CCn3cnc4c(N5CCC(N(C)C)C5)ncnc43)CC2)[C@]2(C)[C@H](C)CC[C@]3(CCC(=O)[C@@H]32)[C@@H](C)[C@@H]1O.Cl.Cl (stereo partly drawn) | 0.25
C=C[C@]1(C)C[C@@H](OC(=O)CN2CCN(C(=O)CCn3cnc4c(N5CCC(N)CC5)ncnc43)[C@@H](C)C2)[C@]2(C)[C@H](C)CC[C@]3(CCC(=O)[C@@H]32)[C@@H](C)[C@@H]1O.Cl.Cl | 0.25
C=C[C@]1(C)C[C@@H](OC(=O)CN2CCN(C(=O)CCn3cnc4c(N5CCC(CNC)C5)ncnc43)[C@@H](C)C2)[C@]2(C)[C@H](C)CC[C@]3(CCC(=O)[C@@H]32)[C@@H](C)[C@@H]1O.Cl.Cl (stereo partly drawn) | 0.125
C=C[C@]1(C)C[C@@H](OC(=O)CN2CCCN(C(=O)CCn3cnc4c(N5CCC(N)C5)ncnc43)CC2)[C@]2(C)[C@H](C)CC[C@]3(CCC(=O)[C@@H]32)[C@@H](C)[C@@H]1O.Cl.Cl (stereo partly drawn) | 0.5
C=C[C@]1(C)C[C@@H](OC(=O)CN2CCN(C(=O)CCn3cnc4c(N5CC[C@H](CNC)C5)ncnc43)CC2)[C@]2(C)[C@H](C)CC[C@]3(CCC(=O)[C@@H]32)[C@@H](C)[C@@H]1O.Cl.Cl | 0.25

Log: Staphylococcus aureus, molecule "C=C[C@]1(C)C[C@@H](OC(=O)CN2CCN(C(=O)CCn3cnc4c(N5CCC(N)CC5)ncnc43)CC2)[C@]2(C)[C@H](C)CC[C@]3(CCC(=O)[C@@H]32)[C@@H](C)[C@@H]1O.Cl.Cl" , MIC = 0.25
